# Tested on: MDA-MB-435 melanoma
# assay.text: NCI-60 one-dose screen, 48 h
# condition.label: 10 µM unless noted
Compounds without any hit were thinned out: in the full panel of roughly 83,000, 20% have a hit. Activity calls are given as the source filed them. Rule for the calls: active = growth percent below 10; inactive = the rest.
Labels: 1 (active), -1 (inactive)

INSERT INTO measurements (molecule, assigned_class) VALUES
  ('Cc1cnc(-c2ccc(-c3ccc(NC(=O)Nc4c(F)cc(F)cc4F)cc3F)c3c2C(=O)NC3)[nH]1', -1),
  ('CCCCN(CCCC)CC(CN(CC)CC)OC(=O)Nc1ccccc1 (configuration not stated)', -1),
  ('O=C(O)c1cn(C2CC2)c2cc(N3CCN(C(=O)CSc4nnc(-c5ccc(Cl)cc5)n4-c4ccccc4)CC3)c(F)cc2c1=O', -1),
  ('CCOCCc1c(O)nc(SC)[nH]c1=O', -1),
  ('COc1ccc2nc(-c3ccc(Cl)cc3)cc(C(=O)N3N=C(c4ccc(N)cc4)CC3c3ccccc3)c2c1 (configuration not stated)', 1),
  ('O=C(O)CCNC1CCCCC1', -1),
  ('CC(C)NS(=O)(=O)c1cccc(-c2ccc3c4c(n(CCCN(C)C)c(=O)c3c2)-c2ccccc2C4=O)c1', -1);

* * *

Recorded measurements of growth, one per entry
# Test system: IGROV1 ovarian
# assay.text: NCI-60 one-dose screen, 48 h (100 = growth as untreated, 0 = no growth, -100 = all killed)
# condition.label: 10 µM unless noted
This is part of a sample that, as a whole, favours compounds with a hit. Of some 83,000 tested, about 20% had one in any assay.
observed.property: growth (%)

INSERT INTO results (molecule, test_value) VALUES
  ('C=C1C(=O)O[C@H]2[C@H]1CC/C(COC(=O)/C=C/c1cccnc1)=C\CC[C@@]1(C)O[C@@H]21', 36.7),
  ('O=c1c2ccccc2n(CC(O)CN2CCCC2)c2c(Br)cccc12 (configuration not stated)', 93.3),
  ('OCCNc1nc(NCCO)nc(Nc2ccc(C3=NN(c4cc(Cl)cc(Cl)c4)C(c4ccc(Cl)cc4)C3)cc2)n1 (configuration not stated)', -11.6),
  ('N#Cc1c(-c2ccc(F)cc2)nc(N/N=C/c2c[nH]c3ccccc23)nc1N1CCOCC1', 65.1),
  ('Cn1c2c(c3ccc(-c4ccn[nH]4)cc3c1=O)C(=O)c1ccccc1-2', 45.6),
  ('COc1cc(C(=O)Nc2cc(OC)c3ccn(C)c3c2)cc2c1C[C@]1(C)CC[C@@H](O)C(C)(C)[C@H]1O2', 25.2),
  ('COc1ccc(-c2nc(C#N)c(NCC(c3ccc(Cl)cc3)N3CCCCC3)o2)cc1 (configuration not stated)', 85.8),
  ('O=C1C(Cl)=C(Nc2ccc3c(c2NC2=C(Cl)C(=O)c4ccccc4C2=O)C(=O)c2ccccc2C3=O)C(=O)c2ccccc21', 6.05),
  ('CCCCCCC/C=C/[C@H]1O[C@]23C(=O)C[C@@]4(C[C@@H](OC5OC(CO)C(O)C(O)C5O)C[C@@H]4[C@H]2C=C1C)OC3=O (some centres not stated)', 15.9),
  ('COc1cc(C(=O)N2CCN(c3ccccc3OC)CC2)c(NC(=O)c2cnccn2)cc1OCc1ccccc1', 63.9),
  ('CCOc1ccccc1C(=O)/C=C/c1cc2ccccc2[nH]c1=O', 1.32),
  ('COc1ccc(/C=C/C(=O)Nc2ncnc3nc[nH]c23)cc1', 105);

* * *

# Test system: IGROV1 ovarian
# assay.text: NCI-60 one-dose screen, 48 h
# condition.label: 10 µM unless noted
About 83,000 compounds went through this panel and 20% of them were active in at least one assay; those are over-represented in the sample as a whole. Activity calls are given as the source filed them. How the source made its calls: active means growth percent below 10; inactive means the rest.
Outcomes: t = active, f = inactive

INSERT INTO assay_data (compound, assigned_class) VALUES
  ('Cc1nc2sc(C(=O)Nc3cccc(Cl)c3C)c(N)c2cc1C(C)O (stereo unspecified)', 'f'),
  ('CCCCCCN1C(=O)CN=C1Nc1ccc2cc3ccc(NC4=NCC(=O)N4CCCCCC)cc3nc2c1', 'f'),
  ('CCCNc1nc(C)[nH]c(=O)c1S', 'f'),
  ('CCCCc1n(Cc2ccc3ccccc3c2)c2ccccc2[n+]1Cc1ccc2ccccc2c1', 't'),
  ('CCC[S@](=O)c1ccc2nc(NC(=O)OC)[nH]c2c1', 'f'),
  ('C=CCn1c(SCC(=O)Nc2ccc(C(=O)/C=C/c3ccc(Cl)cc3)cc2)nnc1-c1cc(OC)c(OC)c(OC)c1', 'f'),
  ('O=C(NC[C@H](O)CN1CCc2ccccc2C1)c1cc(NC2COC2)ncn1', 'f'),
  ('Nc1c(C(=O)Nc2cccc3ccccc23)sc2nc3c(cc12)CCCCCC3', 'f'),
  ('C=C(C)[C@@H]1CC[C@]2(C(=O)OCCOCCOCC[P+](c3ccccc3)(c3ccccc3)c3ccccc3)CC[C@]3(C)[C@H](CC[C@@H]4[C@@]5(C)CC[C@H](C)C(C)(C)[C@@H]5CC[C@]43C)[C@@H]12', 't'),
  ('CN(C)c1ccc(-c2ccc3[nH]c(=O)nc(-c4ccc(F)cc4)c3c2)cn1', 'f'),
  ('CN1CCN(S(=O)(=O)O[C@@H]2C(=O)N(c3cc4c5ccccc5ccc4c4ccccc34)[C@H]2c2ccc(F)cn2)CC1', 'f');

* * *

Consider the following molecules and their measured growth readings.
# System: U251 CNS
# assay.text: NCI-60 one-dose screen, 48 h (100 = growth as untreated, 0 = no growth, -100 = all killed)
# condition.label: 10 µM unless noted
The panel holds about 83,000 compounds, 20% with a hit somewhere; the sample as a whole holds those more often.
observed.property: growth (%)

INSERT INTO assay_data (molecule, test_value) VALUES
  ('CCOC(=O)c1ccc(Nc2ncnc3ccc(NC(=O)c4ccccc4)cc23)cc1', 94.1),
  ('NS(=O)(=O)c1ccc(-n2ncc(NC(=O)Nc3ccc(S(=O)(=O)Nc4nccs4)cc3)c2-c2ccccc2)cc1', 102),
  ('COc1ccc2nc3nc4ccc[nH]c4cc3c2c1', 94.8),
  ('CNC(=O)c1cc(Oc2ccc3c(c2)sc2nc(-c4ccc(NC(C)=O)cc4)cn23)ccn1', 40.7),
  ('CN1C(=O)c2cc(Cl)nc3c(NC(=O)c4cccc(Cl)c4)c(Cl)c(NC(=O)c4cccc(Cl)c4)c1c23', -68.4),
  ('COc1ccc(-c2nnc(N3CCN(C(=O)CN4CCN(c5ccccc5)CC4)CC3)nc2-c2ccc(OC)cc2)cc1', 37),
  ('O=C(Nc1cc(Br)ccn1)c1cc2cc(Nc3nc(-c4ccccc4)nc4ccccc34)ccc2oc1=O', 107),
  ('CCOC(=O)NC(Cc1ccccc1)c1ccccc1 (centres undefined)', 99.9),
  ('COc1ccc(OCC(=O)OC(C)C)cc1', 104),
  ('CC1(C)Cc2c(Br)c(Br)c(Br)c(OCC(O)CN3CCOCC3)c2O1 (centres undefined)', 93.5),
  ('O=C1Nc2ccccc2C12C=C(c1ccccc1)Nc1c2c(-c2ccccc2)nn1-c1ccccc1 (centres undefined)', 41.6),
  ('Oc1ccccc1-c1nc2c3ccccc3c3ccccc3c2o1', 82),
  ('O=CN1N=C(c2ccc(F)cc2)CC1c1cccc(Nc2ccnc3cc(C(F)(F)F)ccc23)c1 (centres undefined)', 53.2),
  ('O=C(CN1N=C(c2ccc(F)cc2)CCC1=O)Nc1nccs1', 101);

* * *

# Tested on: NCI-H322M lung
# assay.text: NCI-60 one-dose screen, 48 h (100 = growth as untreated, 0 = no growth, -100 = all killed)
# condition.label: 10 µM unless noted
About 83,000 compounds went through this panel and 20% of them were active in at least one assay; those are over-represented in the sample as a whole.
Each record's growth is compared with low = under 60%, middle = from 60% up to 80%, high = 80% and over to give its class.

INSERT INTO measurements (compound, assayed_system, assigned_class) VALUES
  ('CCN(CC)CC#CCOC(=O)[C@]1(C)CCC[C@]2(C)[C@H]3C[C@H]4C(C(C)C)=C[C@]3(CC[C@H]21)[C@@H]1C(=O)CCC(=O)[C@@H]14', 'NCI-H322M lung', 'high'),
  ('CCCCn1c2cc(OCc3cn(-c4ccc(Cl)cc4)nn3)ccc2c2ccnc(C)c21', 'NCI-H322M lung', 'low'),
  ('CN(C)CCCn1c2c(c3cc(-c4cccc(S(N)(=O)=O)c4)ccc3c1=O)C(=O)c1ccccc1-2', 'NCI-H322M lung', 'middle'),
  ('COc1ccc2nc(-c3ccc(Cl)cc3)cc(-c3nnc(SC/C(=N/O)c4ccccc4)o3)c2c1', 'NCI-H322M lung', 'middle'),
  ('COc1ccc(-c2nc(C#N)c(NCC(c3ccc(Cl)cc3)N3CCCCC3)o2)cc1 (stereo not given)', 'NCI-H322M lung', 'high'),
  ('CS(=O)(=O)O[C@@H]1C(=O)N(c2cc3c4ccccc4ccc3c3ccccc23)[C@H]1c1ccc(F)cn1', 'NCI-H322M lung', 'middle'),
  ('O=C1NC(SCc2ccc(F)cc2)=N/C1=C/c1cccc(OCc2ccc(Cl)cc2)c1', 'NCI-H322M lung', 'low'),
  ('C/C(=N/Nc1nc2ccccc2n1C)c1ccccn1', 'NCI-H322M lung', 'low');

The measurements presented in this section are drawn from PubChem BioAssay (NCI).
